B1: POU domain, class 3, transcription factor 3, residues 320 to 388; numbered along this chain, P20264 (parent)
chain: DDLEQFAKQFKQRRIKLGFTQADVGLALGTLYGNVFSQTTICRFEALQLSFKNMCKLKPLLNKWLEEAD

Variants of: B1
assay_procedure: abundance fitness (aPCA) (normalised: wild type 0, dead -1); higher = more abundant; growth selection in yeast, the domain comes from the species named
experimental_conditions: Homo sapiens
# if value of abundance fitness reaches -0.5, tag Condition met; if it stays below, tag Condition not met

Would you please look over these solved cases?
Exam item: decide whether the reported abundance fitness for DDLEQFAKQFKQRRIKLGFTQADVGLAGGTLYGNVFSQTTICRFEALQLSFKNMCKLKPLLNKWLEEAD [L28G] is at least -0.5.
Condition not met

Field entry: DDLEQFAKQFKQRRIKLGFTQADVGLALGTLYGNVFSQSTICRFEALQLSFKNMCKLKPLLNKWLEEAD [T39S]
Condition met

Please do the same for DDLEQFAKQFKQRRIKLGFTQADVCLALGTLYGNVFSQTTICRFEALQLSFKNMCKLKPLLNKWLEEAD [G25C] as well.
Condition met

Next: DDLEQFAKQFKQRRIKLGFTQADVGLALGTLYGNSFSQTTICRFEALQLSFKNMCKLKPLLNKWLEEAD [V35S]
Condition met

Here is the next variant: DDLEQFAKQFKQRRIKLGFTQADVGLALGTWYGNVFSQTTICRFEALQLSFKNMCKLKPLLNKWLEEAD [L31W]
Condition met

Lookup DDLEQFAKQFKQRRIKLGFTQADVGLALGTLYGNVFSSTTICRFEALQLSFKNMCKLKPLLNKWLEEAD [Q38S]
Condition met

Please do the same for DDLEQFAKQFKQRRIKLGFTQADVGLALVTLYGNVFSQTTICRFEALQLSFKNMCKLKPLLNKWLEEAD [G29V] as well.
Condition met

Now the variant DDLEQFAKQFKQRRIKLGFTQADVGLARGTLYGNVFSQTTICRFEALQLSFKNMCKLKPLLNKWLEEAD [L28R]
Condition not met

---
Hi team, for DDLEQFAKQFKQRRIKLGFTQADVGMALGTLYGNVFSQTTICRFEALQLSFKNMCKLKPLLNKWLEEAD [L26M] , is the recorded abundance fitness at or above -0.5?
Condition met

Same read-out for DDLEQFAKQFKQRRIKLGFTQADVGLALGTLYGNVFSQTIICRFEALQLSFKNMCKLKPLLNKWLEEAD [T40I] ?
Condition not met

And what about the variant DDLEQFAKQFKQRRIKLGFTQADVGLALGTLYGNVFRQTTICRFEALQLSFKNMCKLKPLLNKWLEEAD [S37R] ?
Condition not met
